molecular target: T1, soluble human insulin receptor-immunoglobulin heavy chain chimera (sIR-Fc; Bass et al., 1996) (human, UniProt P06213 28-956, limits assumed); experiment: phage ELISA
T1 construct: extracellular domain; also called soluble IR (Bass construct); not shown: immunoglobulin heavy chain constant domains
recorded_endpoint: Ratio over Background
Numbers only.

binder: AICDAGFHEHFYDWFALQVSDCGRQS [H2CA-2-B11-IGFR]
Ratio over Background: 1.6

binder: RGCNDDGGKGWSDDPFYHKLSELICGG [B6Hα-1-A2-IR]
Ratio over Background: 1

binder: AQPCGGFYGLLEQLVGRSVCD [20E2B-4-F10-IGFR]
Ratio over Background: 2.2

binder: CCLLCRFQQNFYDWFVCQGISRLRPL [H2CA-2-B4-IGFR]
Ratio over Background: 1.1

--- query ---
Lookup: Which Ratio over Background reading was recorded for the binder NYRRQVFNGNFYDWFDRQVFSLVTPG [H2CA-3-D8-IGFR] ?
Found: 1.8
